# key: entry, value: MFI
- Target desc: T1, human ICOS, full-length, expressed on transfected Expi293 cells (human, UniProt Q9Y6W8 21-199)
- T1 construct: whole, on cells
- T1 sequence (looked up): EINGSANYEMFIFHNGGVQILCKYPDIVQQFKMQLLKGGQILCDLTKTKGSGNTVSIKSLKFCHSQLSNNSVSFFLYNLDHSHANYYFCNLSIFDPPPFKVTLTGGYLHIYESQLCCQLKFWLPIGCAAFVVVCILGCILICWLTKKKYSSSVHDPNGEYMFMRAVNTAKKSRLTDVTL
- Assay remarks: flow cytometry, 100 nM, Expi293 cells with human ICOS
Give a bare numeral; the unit MFI is implied.

Give the measured MFI of variant ICOSL IgV-Fc fusion N52H/N57Y/Q100R (Fc fusion, not shown: a dimerising Fc or GST) DTQEKEVRAMVGSDVELSCACPEGSRFDLNDVYVYWQTSESKTVVTYHIPQHSSLEYVDSRYRNRALMSPAGMLRGDFSLRLFNVTPQDEQKFHCLVLSRSLGFQEVLSVEVTLHVAANFSV . 200000

Thanks! And variant ICOSL IgV-Fc fusion N52S/N57H/Q100E (Fc fusion) DTQEKEVRAMVGSDVELSCACPEGSRFDLNDVYVYWQTSESKTVVTYHIPQSSSLEHVDSRYRNRALMSPAGMLRGDFSLRLFNVTPQDEQKFHCLVLSESLGFQEVLSVEVTLHVAANFSVGSGGGGSEPKSSDKTHTCPPCPAPEAEGAPSVFLFPPKPKDTLMISRTPEVTCVVVDVSHEDPEVKFNWYVDGVEVHNAKTKPREEQYNSTYRVVSVLTVLHQDWLNGKEYKCKVSNKALPAPIEKTISKAKGQPREPQVYTLPPSREEMTKNQVSLTCLVKGFYPSDIAVEWESNGQPENNYKTTPPVLDSDGSFFLYSKLTVDKSRWQQGNVFSCSVMHEALHNHYTQKSLSLSPG ? 258000

# iterate: variant ICOSL IgV-Fc fusion N52Q/N57S/Q100A (Fc fusion) DTQEKEVRAMVGSDVELSCACPEGSRFDLNDVYVYWQTSESKTVVTYHIPQQSSLESVDSRYRNRALMSPAGMLRGDFSLRLFNVTPQDEQKFHCLVLSASLGFQEVLSVEVTLHVAANFSVGSGGGGSEPKSSDKTHTCPPCPAPEAEGAPSVFLFPPKPKDTLMISRTPEVTCVVVDVSHEDPEVKFNWYVDGVEVHNAKTKPREEQYNSTYRVVSVLTVLHQDWLNGKEYKCKVSNKALPAPIEKTISKAKGQPREPQVYTLPPSREEMTKNQVSLTCLVKGFYPSDIAVEWESNGQPENNYKTTPPVLDSDGSFFLYSKLTVDKSRWQQGNVFSCSVMHEALHNHYTQKSLSLSPG 263000

Moving on to the next binder: variant ICOSL IgV-Fc fusion N52M/N57W/Q100P (Fc fusion) DTQEKEVRAMVGSDVELSCACPEGSRFDLNDVYVYWQTSESKTVVTYHIPQMSSLEWVDSRYRNRALMSPAGMLRGDFSLRLFNVTPQDEQKFHCLVLSPSLGFQEVLSVEVTLHVAANFSVGSGGGGSEPKSSDKTHTCPPCPAPEAEGAPSVFLFPPKPKDTLMISRTPEVTCVVVDVSHEDPEVKFNWYVDGVEVHNAKTKPREEQYNSTYRVVSVLTVLHQDWLNGKEYKCKVSNKALPAPIEKTISKAKGQPREPQVYTLPPSREEMTKNQVSLTCLVKGFYPSDIAVEWESNGQPENNYKTTPPVLDSDGSFFLYSKLTVDKSRWQQGNVFSCSVMHEALHNHYTQKSLSLSPG 322000

Repeat with variant ICOSL IgV-Fc fusion N52S/N57Y/Q100M (Fc fusion) DTQEKEVRAMVGSDVELSCACPEGSRFDLNDVYVYWQTSESKTVVTYHIPQSSSLEYVDSRYRNRALMSPAGMLRGDFSLRLFNVTPQDEQKFHCLVLSMSLGFQEVLSVEVTLHVAANFSVGSGGGGSEPKSSDKTHTCPPCPAPEAEGAPSVFLFPPKPKDTLMISRTPEVTCVVVDVSHEDPEVKFNWYVDGVEVHNAKTKPREEQYNSTYRVVSVLTVLHQDWLNGKEYKCKVSNKALPAPIEKTISKAKGQPREPQVYTLPPSREEMTKNQVSLTCLVKGFYPSDIAVEWESNGQPENNYKTTPPVLDSDGSFFLYSKLTVDKSRWQQGNVFSCSVMHEALHNHYTQKSLSLSPG 303000

Another binder: variant ICOSL IgV-Fc fusion N52T/N57H/Q100S (Fc fusion) DTQEKEVRAMVGSDVELSCACPEGSRFDLNDVYVYWQTSESKTVVTYHIPQTSSLEHVDSRYRNRALMSPAGMLRGDFSLRLFNVTPQDEQKFHCLVLSSSLGFQEVLSVEVTLHVAANFSVGSGGGGSEPKSSDKTHTCPPCPAPEAEGAPSVFLFPPKPKDTLMISRTPEVTCVVVDVSHEDPEVKFNWYVDGVEVHNAKTKPREEQYNSTYRVVSVLTVLHQDWLNGKEYKCKVSNKALPAPIEKTISKAKGQPREPQVYTLPPSREEMTKNQVSLTCLVKGFYPSDIAVEWESNGQPENNYKTTPPVLDSDGSFFLYSKLTVDKSRWQQGNVFSCSVMHEALHNHYTQKSLSLSPG 259000

# iterate: variant ICOSL IgV-Fc fusion N52S/N57Y/Q100S (Fc fusion) DTQEKEVRAMVGSDVELSCACPEGSRFDLNDVYVYWQTSESKTVVTYHIPQSSSLEYVDSRYRNRALMSPAGMLRGDFSLRLFNVTPQDEQKFHCLVLSSSLGFQEVLSVEVTLHVAANFSVGSGGGGSEPKSSDKTHTCPPCPAPEAEGAPSVFLFPPKPKDTLMISRTPEVTCVVVDVSHEDPEVKFNWYVDGVEVHNAKTKPREEQYNSTYRVVSVLTVLHQDWLNGKEYKCKVSNKALPAPIEKTISKAKGQPREPQVYTLPPSREEMTKNQVSLTCLVKGFYPSDIAVEWESNGQPENNYKTTPPVLDSDGSFFLYSKLTVDKSRWQQGNVFSCSVMHEALHNHYTQKSLSLSPG 224000

Could you now consider this next binder?
Please look up its MFI: wild-type ICOSL IgV-Fc fusion (Fc fusion, also called WT ICOSL) DTQEKEVRAMVGSDVELSCACPEGSRFDLNDVYVYWQTSESKTVVTYHIPQNSSLENVDSRYRNRALMSPAGMLRGDFSLRLFNVTPQDEQKFHCLVLSQSLGFQEVLSVEVTLHVAANFSVGSGGGGSEPKSSDKTHTCPPCPAPEAEGAPSVFLFPPKPKDTLMISRTPEVTCVVVDVSHEDPEVKFNWYVDGVEVHNAKTKPREEQYNSTYRVVSVLTVLHQDWLNGKEYKCKVSNKALPAPIEKTISKAKGQPREPQVYTLPPSREEMTKNQVSLTCLVKGFYPSDIAVEWESNGQPENNYKTTPPVLDSDGSFFLYSKLTVDKSRWQQGNVFSCSVMHEALHNHYTQKSLSLSPG 212000
